Molecular target: CYP3A4 (Homo sapiens)
Sequence (P08684 2-503): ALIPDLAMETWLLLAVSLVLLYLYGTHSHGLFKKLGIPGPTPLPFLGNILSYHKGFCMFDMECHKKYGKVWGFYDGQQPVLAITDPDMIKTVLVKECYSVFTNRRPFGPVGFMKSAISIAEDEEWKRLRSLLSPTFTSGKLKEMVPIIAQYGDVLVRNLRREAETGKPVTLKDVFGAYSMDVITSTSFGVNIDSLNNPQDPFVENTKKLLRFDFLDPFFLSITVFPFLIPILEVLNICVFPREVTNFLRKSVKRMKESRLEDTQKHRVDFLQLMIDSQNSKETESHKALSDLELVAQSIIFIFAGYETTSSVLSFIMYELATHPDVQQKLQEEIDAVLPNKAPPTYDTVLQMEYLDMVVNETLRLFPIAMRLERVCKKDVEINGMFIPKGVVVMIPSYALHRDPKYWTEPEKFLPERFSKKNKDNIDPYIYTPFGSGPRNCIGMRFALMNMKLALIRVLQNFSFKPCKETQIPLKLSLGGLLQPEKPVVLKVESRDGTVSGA
Assay: in vitro
Conditions: human, microsomes, pH 7.4, IC50, CYP3A4-Midazolam Inactivation; minus NADPH; 30 min pre-incubation
pIC50: −log10 of the molar value.
Measure name: pIC50

Task: # get_value(readout='pIC50', item= `Cc1cn2nc(-c3cc(=O)n4cc(N5CCNC6(CC6)C5)ccc4n3)cc(C)c2n1` )
Output: < 4.90

###

Molecular target: CYP2C19 (Homo sapiens)
Sequence (P33261 whole entry): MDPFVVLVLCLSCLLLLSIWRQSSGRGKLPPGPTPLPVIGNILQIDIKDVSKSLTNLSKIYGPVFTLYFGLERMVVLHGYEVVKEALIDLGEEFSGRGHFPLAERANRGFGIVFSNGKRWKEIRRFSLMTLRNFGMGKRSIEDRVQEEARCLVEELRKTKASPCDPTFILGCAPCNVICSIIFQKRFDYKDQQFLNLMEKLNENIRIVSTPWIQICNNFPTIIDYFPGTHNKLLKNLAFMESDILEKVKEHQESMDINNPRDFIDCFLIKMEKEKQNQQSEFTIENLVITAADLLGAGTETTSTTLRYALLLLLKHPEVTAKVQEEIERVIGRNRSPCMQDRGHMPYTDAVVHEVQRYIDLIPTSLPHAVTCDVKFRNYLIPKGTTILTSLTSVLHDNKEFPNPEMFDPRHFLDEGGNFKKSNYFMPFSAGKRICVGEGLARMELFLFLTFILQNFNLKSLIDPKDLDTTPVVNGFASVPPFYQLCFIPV
Assay: in vitro
Conditions: pooled human liver microsomes, pH 7.4, probe (S)-mephenytoin
Measure name: activity (%)
Only the number, expressed in %, is required.

Task: Could you share which activity value was measured for Cc1cn2nc(-c3cc(=O)n4cc(N5CCNC6(CC6)C5)ccc4n3)cc(C)c2n1 [risdiplam] ?
Output: 102

###

Molecular target: CYP2C9 (Homo sapiens)
Sequence (P11712 whole entry): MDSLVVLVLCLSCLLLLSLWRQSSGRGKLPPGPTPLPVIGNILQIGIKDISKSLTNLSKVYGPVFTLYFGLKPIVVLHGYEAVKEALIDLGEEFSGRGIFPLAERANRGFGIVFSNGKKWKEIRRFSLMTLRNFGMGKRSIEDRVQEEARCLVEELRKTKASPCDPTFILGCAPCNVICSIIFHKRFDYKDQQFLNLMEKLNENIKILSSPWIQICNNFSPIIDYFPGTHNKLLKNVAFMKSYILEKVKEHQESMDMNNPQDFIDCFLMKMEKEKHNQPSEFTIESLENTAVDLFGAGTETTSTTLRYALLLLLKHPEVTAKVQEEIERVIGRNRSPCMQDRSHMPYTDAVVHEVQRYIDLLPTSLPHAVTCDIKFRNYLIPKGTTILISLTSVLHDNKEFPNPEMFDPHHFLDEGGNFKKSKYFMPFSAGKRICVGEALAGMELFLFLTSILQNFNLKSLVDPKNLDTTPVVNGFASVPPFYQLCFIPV
Test: in vitro
Settings: pooled human liver microsomes, pH 7.4, probe diclofenac
Measure name: activity (%)
// note: answer is a bare numeric in %

Task: Value lookup for activity; key = `Cc1cn2nc(-c3cc(=O)n4cc(N5CCNC6(CC6)C5)ccc4n3)cc(C)c2n1`
Output: 83

###

Molecular target: UniProt P08684
Experiment: Direct inhibition of CYP3A4 (midazolam and testosterone) in human liver microsomes
Type: in vitro ADME
Set-up: rows headed: % Control activity at; substrate Midazolam; concentration not given; duplicates; % Control activity at; substrate Testosterone; % Remaining; other: direct; CYP3A4-Midazolam Activity; risdiplam 0.20 μM; risdiplam 0.10 μM; dupl
Conditions: human, microsomes, pH 7.4, IC50, direct; CYP3A4-Testosterone Activity (6β-hydroxylation); testosterone 50 μM
Measure name: pIC50
Please keep in mind that pIC50 is minus log10 of the molar concentration; only the number is needed.

Task: So what does the record say about pIC50 for `Cc1cn2nc(-c3cc(=O)n4cc(N5CCNC6(CC6)C5)ccc4n3)cc(C)c2n1` ?
Output: 4.96

###

Target: CYP2C8 (Homo sapiens, UniProt P10632)
Sequence (P10632 whole entry): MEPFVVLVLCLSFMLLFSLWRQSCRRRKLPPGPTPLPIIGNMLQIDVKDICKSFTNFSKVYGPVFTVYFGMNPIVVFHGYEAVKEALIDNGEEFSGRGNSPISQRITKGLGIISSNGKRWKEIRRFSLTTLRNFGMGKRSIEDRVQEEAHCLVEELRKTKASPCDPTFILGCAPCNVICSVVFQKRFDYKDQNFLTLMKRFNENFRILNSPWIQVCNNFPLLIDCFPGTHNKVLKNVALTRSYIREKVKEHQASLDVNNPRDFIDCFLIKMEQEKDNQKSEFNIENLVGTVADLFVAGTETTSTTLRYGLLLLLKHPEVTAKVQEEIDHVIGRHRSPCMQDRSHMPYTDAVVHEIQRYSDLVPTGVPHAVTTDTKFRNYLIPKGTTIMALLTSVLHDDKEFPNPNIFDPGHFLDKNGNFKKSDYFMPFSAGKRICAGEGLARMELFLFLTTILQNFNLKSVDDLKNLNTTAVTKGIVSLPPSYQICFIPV
Test: biochemical
Measure name: IC50

Task: Query: IC50; subject: Cc1cn2nc(-c3cc(=O)n4cc(N5CCNC6(CC6)C5)ccc4n3)cc(C)c2n1 [risdiplam]
Output: > 12.5 µM

###

Molecular target: CYP1A2 (Homo sapiens, UniProt P05177)
Sequence (P05177 1-516): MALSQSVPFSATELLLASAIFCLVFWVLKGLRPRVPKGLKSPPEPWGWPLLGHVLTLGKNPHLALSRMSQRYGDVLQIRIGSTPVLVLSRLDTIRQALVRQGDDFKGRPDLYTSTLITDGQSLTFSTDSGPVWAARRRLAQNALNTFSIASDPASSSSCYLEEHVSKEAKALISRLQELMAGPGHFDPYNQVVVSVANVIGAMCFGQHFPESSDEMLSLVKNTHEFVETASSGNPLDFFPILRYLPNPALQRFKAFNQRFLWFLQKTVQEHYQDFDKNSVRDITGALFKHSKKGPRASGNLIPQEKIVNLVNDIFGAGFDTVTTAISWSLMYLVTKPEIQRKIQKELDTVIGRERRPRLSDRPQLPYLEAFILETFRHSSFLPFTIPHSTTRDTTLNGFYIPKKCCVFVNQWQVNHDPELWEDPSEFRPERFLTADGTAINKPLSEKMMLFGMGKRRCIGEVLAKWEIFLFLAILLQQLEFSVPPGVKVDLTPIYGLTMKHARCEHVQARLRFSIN
Test: in vitro
Details: pooled human liver microsomes, pH 7.4, probe phenacetin
Measure name: activity (%)
Return type: number; implicit unit %.

Task: Field: activity (CYP1A2 (Homo sapiens, UniProt P05177)). Entry: `Cc1cn2nc(-c3cc(=O)n4cc(N5CCNC6(CC6)C5)ccc4n3)cc(C)c2n1`
Output: 94
